# test.target: Protein deacetylase HDAC6 (Homo sapiens) (UniProt Q9UBN7)
# Sequence (Q9UBN7 whole entry): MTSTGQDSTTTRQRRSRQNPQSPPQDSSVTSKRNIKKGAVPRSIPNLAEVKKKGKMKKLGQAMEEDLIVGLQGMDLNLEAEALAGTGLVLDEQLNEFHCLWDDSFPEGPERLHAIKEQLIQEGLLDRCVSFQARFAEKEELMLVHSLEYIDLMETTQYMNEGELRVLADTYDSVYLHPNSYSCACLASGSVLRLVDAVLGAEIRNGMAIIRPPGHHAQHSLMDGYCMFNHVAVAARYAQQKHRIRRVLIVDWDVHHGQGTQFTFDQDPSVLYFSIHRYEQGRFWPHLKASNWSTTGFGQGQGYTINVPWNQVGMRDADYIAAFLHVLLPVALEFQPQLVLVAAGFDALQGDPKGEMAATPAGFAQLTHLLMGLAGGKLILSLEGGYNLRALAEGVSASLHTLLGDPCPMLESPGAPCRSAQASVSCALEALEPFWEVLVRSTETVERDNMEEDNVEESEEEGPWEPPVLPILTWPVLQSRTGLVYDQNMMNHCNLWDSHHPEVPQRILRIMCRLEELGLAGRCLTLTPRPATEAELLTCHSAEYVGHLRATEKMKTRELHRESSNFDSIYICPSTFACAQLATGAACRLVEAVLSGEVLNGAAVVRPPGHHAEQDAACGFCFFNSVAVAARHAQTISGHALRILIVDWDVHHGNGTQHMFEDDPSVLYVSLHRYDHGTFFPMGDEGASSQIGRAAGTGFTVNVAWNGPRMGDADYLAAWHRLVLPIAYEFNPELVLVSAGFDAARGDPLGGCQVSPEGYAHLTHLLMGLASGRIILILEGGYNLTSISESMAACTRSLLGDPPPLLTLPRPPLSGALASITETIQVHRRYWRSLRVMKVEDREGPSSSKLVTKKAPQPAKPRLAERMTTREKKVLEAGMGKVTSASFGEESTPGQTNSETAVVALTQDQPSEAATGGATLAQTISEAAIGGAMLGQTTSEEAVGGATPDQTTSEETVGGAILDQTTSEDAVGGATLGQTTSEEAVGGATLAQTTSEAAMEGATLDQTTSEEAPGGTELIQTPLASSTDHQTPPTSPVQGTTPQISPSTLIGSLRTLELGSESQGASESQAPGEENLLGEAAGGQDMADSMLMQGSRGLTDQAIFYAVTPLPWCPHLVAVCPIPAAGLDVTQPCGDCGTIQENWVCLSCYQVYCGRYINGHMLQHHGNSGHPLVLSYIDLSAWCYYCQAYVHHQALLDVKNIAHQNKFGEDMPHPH
# method.notes: Inhibition of HDAC6 using Fluor-de-Lys as substrate at 100 uM by spectrofluorometry
The source made the active and inactive calls. The rule behind the calls is not given here.
measured.property: inhibition

> print(dat)
                           smiles.structure  measured.property  experimental.result
1     C[C@@H](NC(=S)NC(=O)c1ccccc1)c1ccccc1         inhibition                  45%
2             O=C(NC(=S)Nc1ccccc1)c1ccccc1F         inhibition             inactive
3      COc1cc(NC(=S)NC(=O)c2ccccc2)cc(OC)c1         inhibition                   5%
4  O=C(NC(=S)NCc1ccc(-c2ccccc2)cc1)c1ccccc1         inhibition             inactive
